test system: RXF 393 renal; assay: NCI tumour cell line growth inhibition, 48 h
Entry flag: T if TGI reaches 20 µM; F if it does not.

In plain terms: is recorded TGI at least 20 µM for COc1ccc(C(C)NNC(=O)c2ccncc2)c(OC)c1 (stereo not drawn) ?
T

Item: "COc1ncnc(C2CC2)c1-c1ncc2cnn(Cc3ccc(-c4nc(C(F)(F)F)cn4C(C)C)cc3)c2n1"
T

Item: "O=[N+]([O-])c1cc2oc(COc3ccccc3)nc2cc1Cl"
T

Item: "COCCOCc1nc(C#N)c(N)o1"
T

Item: "Cc1nc(N)sc1-c1ccnc(Nc2ccc(N3CCOCC3)cc2)n1"
F

Item: "CCC1(CC)SCc2nc3ccccc3n21"
T

Item: "COc1ccc(/C=C(/C(=O)c2ccc(Cl)cc2)N2C=CC=CC2=C(C#N)C#N)cc1OC"
F

Item: NC(=O)C(N)Cc1ccc(O)cn1 (stereo not drawn)
T

Item: "CCOc1nc(-c2ccccc2)cc2c(O)c(-c3nnco3)[nH]c(=O)c12"
T

Item: "O=C(O)c1nc(-c2ccccc2)ncc1-c1nnnn1-c1ccccc1"
T

Item: "CC(C)(C)OC(=O)NCC(O)CNC(=O)OC(C)(C)C"
T

Item: COc1ccc2nc3ccc(OC)cc3c(S(=O)CCCl)c2c1 (stereo not drawn)
F

Item: "CCCCc1c(OC)cc(O)c2c1C(=O)c1[nH]c(C(=O)O)c(O)c(=O)c1C2=O"
F

Item: "C[N+](C)([O-])CCC=C1c2ccccc2CCc2ccccc21"
T

Item: "CC/C(=C(/c1ccc(OCCN(C)C)cc1)c1ccc(OC(=O)CCCCC(=O)c2c(C)[nH]c(/C=C3\N=C(c4ccc[nH]4)C=C3OC)c2C)cc1)c1ccccc1"
F

Item: C=C(CCCCC)CN1CCCC1[C@@](C)(O)CC(=O)OCC (stereo partly drawn)
T

Item: "O=c1c2ccccc2[se]n1-c1cccnc1"
T

Item: "COc1cc(C[S+]2CCCC2)c(SC)cc1C[S+]1CCCC1"
T

Item: "O=C(Nc1nc2ncn(CCI)c2c(=O)[nH]1)c1ccccc1"
T

Item: "S=C(NCc1ccccc1)c1nc[nH]c1C(=S)NCc1ccccc1"
T

Item: "CCN1CCN(c2ccc(Nc3cc(N(C)C(=O)Nc4c(Cl)c(OC)cc(OC)c4Cl)ncn3)cc2)CC1"
F

Item: "CCC[CH2][Sn]([CH2]CCC)([CH2]CCC)[O]C(=O)CC"
F

====

Task for the reader: assign each of the following compounds its reported TGI.
test system: RPMI-8226 leukemia; experiment: NCI tumour cell line growth inhibition, 48 h

What measured TGI goes with "C[N+](C)([O-])CCC=C1c2ccccc2CCc2ccccc21" ?
34.5 µM

Item: "O=C(Nc1ccc(OS(=O)(=O)c2ccccc2)cc1)C12CC3CC(CC(C3)C1)C2"
> 100 µM

Item: "O=C(O)c1nc(-c2ccccc2)ncc1-c1nnnn1-c1ccccc1"
> 100 µM

Item: "NC(N)=NCCN=C(N)N"
> 100 µM

Item: O=C1c2ccccc2C2(Br)C(=O)c3ccccc3C12 (stereo unspecified)
> 100 µM

Item: COc1ccc(N2C(=O)C(c3ccccc3)(c3ccccc3)C23C(=O)N(C)c2ccccc23)cc1 (stereo unspecified)
> 100 µM

Item: "Cc1cc2nc3c(C#N)c(-c4ccccc4)cc(Nc4ccc(Cl)cc4)n3c2cc1C"
> 100 µM

Item: "CC(C)(C)OC(=O)NCC(O)CNC(=O)OC(C)(C)C"
> 100 µM

Item: "CCC(=O)NC(Nc1cccc(F)c1C)(C(F)(F)F)C(F)(F)F"
> 100 µM

Item: COc1ccc(CC2c3cc(Oc4cc(CC5c6cc(OC)c(OC)cc6CCN5C)ccc4O)c(OC)cc3CCN2C)cc1 (stereo unspecified)
10.1 µM

Item: COC(C)(C)C1=CCC(C)CC1 (stereo unspecified)
> 100 µM

Item: "O=C(O)/C=N\Nc1nc2ccccc2[nH]1"
> 100 µM

Item: Cc1ccc(C(SCC(N)C(=O)O)(c2ccccc2)c2ccc(C)cc2)cc1 (stereo unspecified)
20.6 µM

Item: "COc1cc(-c2cc(=O)c3c(OC)c(OC)c(OC)c(OC)c3o2)c(OC)c(OC)c1OC"
> 100 µM

Item: CC(C)(C)C(=O)OCC1CCC[N+]2(C)CCCCC12 (stereo unspecified)
> 100 µM

Item: O=C(c1ccc(O)cc1)C1c2c3c(cc(O)c2C(c2ccc(O)cc2)C1c1cc(O)cc(O)c1)OC(c1ccc(O)cc1)C3c1cc2c(cc1O)OC(c1ccc(O)cc1)C2c1cc(O)cc(O)c1 (stereo unspecified)
> 12.5 µM

Item: "S=C(c1c[nH]c2ccccc12)N1CCOCC1"
> 100 µM

Item: "Cc1ccc2c(n1)C(=O)c1[nH]c3ccccc3c1C2=O"
12.3 µM

Item: "O=c1c2ccccc2[se]n1-c1cccnc1"
86.9 µM

Item: "Cc1cc(C)c(S(=O)(=O)N2CCCN(S(=O)(=O)c3c(C)cc(C)cc3C)OCCCON(S(=O)(=O)c3c(C)cc(C)cc3C)CCCN(S(=O)(=O)c3c(C)cc(C)cc3C)OCCCO2)c(C)c1"
> 100 µM

Item: CC1=Nc2ccccc2C1C(Cc1ccccc1N)c1c(C)[nH]c2ccccc12 (stereo unspecified)
52.4 µM

// provenance: PubChem BioAssay (NCI)
